Hey, just so you know, these numbers are from ChEMBL document CHEMBL1147732.

Notes on IC50 obtained with UniProt P06276.
Sequence (P06276 whole entry): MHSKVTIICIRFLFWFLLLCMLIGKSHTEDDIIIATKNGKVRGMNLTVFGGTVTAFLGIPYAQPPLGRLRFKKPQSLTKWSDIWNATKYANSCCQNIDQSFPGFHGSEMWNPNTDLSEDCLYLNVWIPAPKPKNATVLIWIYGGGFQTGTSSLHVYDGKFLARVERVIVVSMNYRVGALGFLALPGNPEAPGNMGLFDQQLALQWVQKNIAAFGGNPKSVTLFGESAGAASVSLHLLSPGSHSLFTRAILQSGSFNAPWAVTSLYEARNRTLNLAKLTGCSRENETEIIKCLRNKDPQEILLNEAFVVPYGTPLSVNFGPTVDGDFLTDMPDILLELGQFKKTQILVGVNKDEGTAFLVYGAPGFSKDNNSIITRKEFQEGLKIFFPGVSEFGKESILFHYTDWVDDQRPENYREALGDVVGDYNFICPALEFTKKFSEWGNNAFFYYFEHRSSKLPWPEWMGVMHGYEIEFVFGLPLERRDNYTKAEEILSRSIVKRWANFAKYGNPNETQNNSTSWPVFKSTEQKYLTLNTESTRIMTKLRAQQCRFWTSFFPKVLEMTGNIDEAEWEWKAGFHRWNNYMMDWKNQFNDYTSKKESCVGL
Give just the numeric value; nM need not be written.

Input: What IC50 appears in the records for this compound with UniProt P06276? O=C(CCCCCNc1c2c(nc3cccc(Cl)c13)CCCC2)NCCc1c[nH]c2ccccc12
Output: 23

Input: What IC50 appears in the records for this compound with UniProt P06276? COc1ccc2[nH]cc(CCNC(=O)CCCCCCNc3c4c(nc5ccccc35)CCCC4)c2c1
Output: 3

Input: What IC50 appears in the records for this compound with UniProt P06276? O=C(CCCCCNc1c2c(nc3ccccc13)CCCC2)NCCc1c[nH]c2ccc(O)cc12
Output: 1

Input: What IC50 appears in the records for this compound with UniProt P06276? O=C(CCCCCCNc1c2c(nc3cc(Cl)cc(Cl)c13)CCCC2)NCCc1c[nH]c2ccccc12
Output: 7.8

Input: What IC50 appears in the records for this compound with UniProt P06276? O=C(CCCCCCNc1c2c(nc3cc(Cl)ccc13)CCCC2)NCCc1c[nH]c2ccccc12
Output: 35

Input: What IC50 appears in the records for this compound with UniProt P06276? O=C(CCCCCCNc1c2c(nc3ccccc13)CCCC2)NCCc1c[nH]c2ccccc12
Output: 6.8

Input: What IC50 appears in the records for this compound with UniProt P06276? COc1ccc2[nH]cc(CCNC(=O)CCCCCCNc3c4c(nc5cc(Cl)cc(Cl)c35)CCCC4)c2c1
Output: 25

###

Notes on pIC50 obtained with Butyrylcholinesterase (Equus caballus).
Sequence (Q9N1N9 whole entry): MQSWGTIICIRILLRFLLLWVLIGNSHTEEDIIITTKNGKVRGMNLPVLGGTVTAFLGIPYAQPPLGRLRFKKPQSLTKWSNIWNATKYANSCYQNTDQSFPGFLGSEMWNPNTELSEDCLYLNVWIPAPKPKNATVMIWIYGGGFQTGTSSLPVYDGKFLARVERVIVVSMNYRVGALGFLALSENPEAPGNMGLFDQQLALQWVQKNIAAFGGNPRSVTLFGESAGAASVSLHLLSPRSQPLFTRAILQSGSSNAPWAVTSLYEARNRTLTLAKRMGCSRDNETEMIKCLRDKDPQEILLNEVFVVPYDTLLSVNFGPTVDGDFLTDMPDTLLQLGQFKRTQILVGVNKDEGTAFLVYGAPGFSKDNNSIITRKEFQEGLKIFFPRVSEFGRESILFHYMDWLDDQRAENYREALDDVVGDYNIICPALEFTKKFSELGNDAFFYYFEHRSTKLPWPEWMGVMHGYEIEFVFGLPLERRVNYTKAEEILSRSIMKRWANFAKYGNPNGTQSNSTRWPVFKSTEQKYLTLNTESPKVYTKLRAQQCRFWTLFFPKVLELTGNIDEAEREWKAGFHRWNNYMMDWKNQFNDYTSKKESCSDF
Hey, just a heads up that pIC50 is the negative log base 10 of the concentration in molar.

Input: What pIC50 appears in the records for this molecule with Butyrylcholinesterase (Equus caballus)? COc1ccc2[nH]cc(CCNC(=O)CCCCCCNc3c4c(nc5ccccc35)CCCC4)c2c1
Output: 8.60

Input: What pIC50 appears in the records for this molecule with Butyrylcholinesterase (Equus caballus)? O=C(CCCCCNc1c2c(nc3cc(Cl)ccc13)CCCC2)NCCc1c[nH]c2ccccc12
Output: 8.28

Input: What pIC50 appears in the records for this molecule with Butyrylcholinesterase (Equus caballus)? COc1ccc2[nH]cc(CCNC(=O)CCCCCCNc3c4c(nc5cc(Cl)cc(Cl)c35)CCCC4)c2c1
Output: 7.00

Input: What pIC50 appears in the records for this molecule with Butyrylcholinesterase (Equus caballus)? O=C(CCCCCNc1c2c(nc3cccc(Cl)c13)CCCC2)NCCc1c[nH]c2ccccc12
Output: 7.82

Input: What pIC50 appears in the records for this molecule with Butyrylcholinesterase (Equus caballus)? COc1ccc2[nH]cc(CCNC(=O)CCCCCNc3c4c(nc5ccccc35)CCCC4)c2c1
Output: 8.70

Input: What pIC50 appears in the records for this molecule with Butyrylcholinesterase (Equus caballus)? O=C(CCCCCNc1c2c(nc3ccccc13)CCCC2)NCCc1c[nH]c2ccccc12
Output: 7.92

Input: What pIC50 appears in the records for this molecule with Butyrylcholinesterase (Equus caballus)? COc1ccc2[nH]cc(CCNC(=O)CCCCCNc3c4c(nc5cc(Cl)ccc35)CCCC4)c2c1
Output: 7.26

Input: What pIC50 appears in the records for this molecule with Butyrylcholinesterase (Equus caballus)? O=C(CCCCCNc1c2c(nc3ccccc13)CCCC2)NCCc1c[nH]c2ccc(O)cc12
Output: 8.46

Input: What pIC50 appears in the records for this molecule with Butyrylcholinesterase (Equus caballus)? COc1ccc2[nH]cc(CCNC(=O)CCCCCNc3c4c(nc5cccc(Cl)c35)CCCC4)c2c1
Output: 7.66

Input: What pIC50 appears in the records for this molecule with Butyrylcholinesterase (Equus caballus)? O=C(CCCCCCNc1c2c(nc3ccccc13)CCCC2)NCCc1c[nH]c2ccccc12
Output: 9.02

Input: What pIC50 appears in the records for this molecule with Butyrylcholinesterase (Equus caballus)? O=C(CCCCCCNc1c2c(nc3cc(Cl)cc(Cl)c13)CCCC2)NCCc1c[nH]c2ccccc12
Output: 7.07

Input: What pIC50 appears in the records for this molecule with Butyrylcholinesterase (Equus caballus)? O=C(CCCCCNc1c2c(nc3cc(Cl)cc(Cl)c13)CCCC2)NCCc1c[nH]c2ccccc12
Output: 8.09

Input: What pIC50 appears in the records for this molecule with Butyrylcholinesterase (Equus caballus)? O=C(CCCCCCNc1c2c(nc3cc(Cl)ccc13)CCCC2)NCCc1c[nH]c2ccccc12
Output: 8.09
